# Tested on: SF-268 CNS
# Test description: NCI tumour cell line growth inhibition, 48 h
Parameter: TGI (µM)
Note: unit µM is implicit; provide only the numeric part.

Entry `COc1ccc2c(c1)nc(N)c1c3cc(OC)c(OC)cc3cn21` needs its TGI filled in; supply it.
17.5

Entry `COc1ccc2nc(-c3ccccc3)cc(Nc3ccc(C(C)=O)cc3)c2c1` needs its TGI filled in; supply it.
31

Entry `CC1(C)NCCC[C@]2(C)[C@H]3C=CC4=C5C[C@](C)(CO)CC[C@]5(C)CC[C@@]4(C)[C@]3(C)CC[C@@H]12` needs its TGI filled in; supply it.
11.6

Entry OC(C1=C/C(=C\c2ccncc2)c2ccccc21)c1ccncc1 (configuration not stated) needs its TGI filled in; supply it.
57.3

Entry `COc1cc(C(=O)O[C@H](C(=O)NCCNC(=O)[C@@H](OC(=O)c2cc(OC)cc3c(C)cccc23)[C@]2(C)CO2)[C@]2(C)CO2)c2cccc(C)c2c1` needs its TGI filled in; supply it.
0.191

Entry `O=[N+]([O-])c1ccc(-c2nc(N(CCO)CCO)c3ccccc3n2)o1` needs its TGI filled in; supply it.
1.52

Entry COc1ccc(C2=NN(C(=O)COc3ccc(Cl)cc3)C(O)(c3cc(F)c(Cl)cc3Cl)C2)cc1OC (configuration not stated) needs its TGI filled in; supply it.
17.4

Entry `Cc1cccc(C)c1NC(=O)/C(Cl)=C(/Cl)C(=O)O` needs its TGI filled in; supply it.
32.6

Entry `CC1(C)OC[C@@H]([C@@]2(CO[Si](C)(C)C(C)(C)C)CC=CC(=O)O2)O1` needs its TGI filled in; supply it.
89.2
